Test system: SF-295
assay_remarks: Induction of apoptosis in human SF295 cells assessed as apoptotic nuclei at 5 uM after 24 hrs by acridine orange/ethidium bromide staining based fluorescence microscopy
Assay type: functional
quantity: Activity (%)
// note: answer is a bare numeric in %

Consider the following illustrative entries.
{"compound": "CCCC1=C(OC2(CCC)C(=O)C(=O)C3=C(CCCC3)C2=O)C(=O)C2=C(CCCC2)C1=O (centres undefined)", "Activity (%)": 11.73}
{"compound": "O=C1c2ccccc2C(=O)c2c1ccc1nc(-c3ccc(O)cc3)[nH]c21", "Activity (%)": 5.93}
{"compound": "Cc1ccccc1-c1nc2ccc3c(c2[nH]1)C(=O)c1ccccc1C3=O", "Activity (%)": 11.85}

With those in mind, consider the next compound.
I'm curious: which Activity was measured for CC(C)CCC1=C(OC2(CCC(C)C)C(=O)C(=O)C3=C(CCCC3)C2=O)C(=O)C2=C(CCCC2)C1=O (centres undefined) tested on SF-295?
8.33
